measurement_target: PDE4B1 (Homo sapiens, UniProt Q07343)
Construct: made in house; host or cells: SF21 insect cells (baculovirus; virus made in SF9 cells, pCR-Bac vector)
Sequence (Q07343 whole entry): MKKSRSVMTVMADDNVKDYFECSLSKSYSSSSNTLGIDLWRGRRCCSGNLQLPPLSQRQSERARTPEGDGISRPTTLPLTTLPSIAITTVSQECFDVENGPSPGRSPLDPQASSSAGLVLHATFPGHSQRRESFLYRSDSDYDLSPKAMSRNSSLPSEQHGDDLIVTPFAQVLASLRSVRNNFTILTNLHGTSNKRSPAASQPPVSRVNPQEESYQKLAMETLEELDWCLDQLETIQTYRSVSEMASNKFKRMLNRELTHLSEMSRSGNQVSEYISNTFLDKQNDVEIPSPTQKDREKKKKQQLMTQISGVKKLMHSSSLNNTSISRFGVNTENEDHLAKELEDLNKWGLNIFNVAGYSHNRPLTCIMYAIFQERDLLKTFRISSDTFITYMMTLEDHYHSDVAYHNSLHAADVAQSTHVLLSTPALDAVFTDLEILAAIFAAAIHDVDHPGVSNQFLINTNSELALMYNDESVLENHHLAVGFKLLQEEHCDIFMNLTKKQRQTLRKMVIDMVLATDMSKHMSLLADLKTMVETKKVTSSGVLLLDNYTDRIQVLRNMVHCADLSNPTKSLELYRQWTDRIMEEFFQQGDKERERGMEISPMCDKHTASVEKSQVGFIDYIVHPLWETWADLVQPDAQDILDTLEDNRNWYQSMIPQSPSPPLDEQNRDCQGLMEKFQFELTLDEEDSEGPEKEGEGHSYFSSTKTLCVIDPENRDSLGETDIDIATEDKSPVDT
assay_details: Inhibition of PDE4 activity (PDE4B1, SPA assay)
Type: biochemical
reported_conditions: recombinant PDE4B1, 0.5 μM cAMP; read-out: PDE4B1 Inhibitory values measured as -logIC50 (converted)
Let's look at some compounds and their measured IC50.

compound	IC50
COc1ccc(C2=NN(C3CCN(C(=O)[C@H](CCC(=O)N4CCCCC4)NC(=O)c4c[nH]c5c(-c6c(OCC7CC7)ccc7c6OCO7)ncnc45)CC3)C(=O)[C@@H]3CCCC[C@H]23)cc1OC	1 to 10 nM
COc1cc(OCC2CC2)c(-c2ncnc3c(C(=O)N[C@H](Cc4ccccc4)C(=O)N4CCC(N5N=C(c6ccc(OC)c(OC)c6)CC(C)(C)C5=O)CC4)c[nH]c23)cc1F	1 to 10 nM
COc1ccc(C2=NN(C3CCN(C(=O)C(Cc4c[nH]c5ccccc45)NC(=O)c4c[nH]c5c(-c6c(OCC7CC7)ccc7c6OCO7)ncnc45)CC3)C(=O)C3CCCCC23)cc1OC (stereo not shown)	< 1 nM
COc1ccc(C2=NN(C3CCN(C(=O)[C@@H](Cc4ccc(Cl)cc4Cl)NC(=O)c4c[nH]c5c(-c6c(OCC7CC7)ccc7c6OCO7)ncnc45)CC3)C(=O)[C@@H]3CCCC[C@H]23)cc1OC	< 1 nM
COc1ccc(C2=NN(C3CCN(C(=O)[C@@H](NC(=O)c4c[nH]c5c(-c6c(OCC7CC7)ccc7c6OCO7)ncnc45)[C@@H](C)O)CC3)C(=O)[C@@H]3CCCC[C@H]23)cc1OC	< 1 nM
COc1ccc(C2=NN(C3CCN(C(=O)[C@@H](Cc4ccc(-c5ccccc5)cc4)NC(=O)c4c(C)[nH]c5c(-c6c(OCC7CC7)ccc7c6OCO7)ncnc45)CC3)C(=O)[C@@H]3CCCC[C@H]23)cc1OC	1 to 10 nM
COc1cc(OCC2CC2)c(-c2ncnc3c(C(=O)N[C@H](Cc4ccccc4)C(=O)N4CCC(N5N=C(c6ccc(OC)c(OC)c6)[C@H]6CCCC[C@H]6C5=O)CC4)c[nH]c23)cc1F	1 to 10 nM
COc1ccc(C2=NN(C3CCN(C(=O)[C@@H](Cc4ccc(F)cc4)NC(=O)c4c[nH]c5c(-c6c(OCC7CC7)ccc7c6OCO7)ncnc45)CC3)C(=O)C(C)(C)C2)cc1OC	< 1 nM

Prompt line: Param item = "COc1ccc(C2=NN(C3CCN(C(=O)[C@H](Cc4cccc(C)c4)NC(=O)c4c[nH]c5c(-c6c(OCC7CC7)ccc7c6OCO7)ncnc45)CC3)C(=O)[C@@H]3CCCC[C@H]23)cc1OC" ; retrieve measured IC50.
Response line: < 1 nM

Prompt line: "COc1ccc(C2=NN(C3CCN(C(=O)[C@@H](NC(=O)c4c[nH]c5c(-c6c(OCC7CC7)ccc7c6OCO7)ncnc45)C4CCCCC4)CC3)C(=O)[C@@H]3CCCC[C@H]23)cc1OC" ?
Response line: 1 to 10 nM

Prompt line: Try the compound "COc1ccc(C2=NN(C3CCN(C(=O)[C@H](Cc4cccnc4)NC(=O)c4c[nH]c5c(-c6c(OCC7CC7)ccc7c6OCO7)ncnc45)CC3)C(=O)C(C)(C)C2)c2c1OC(C)(C)C2"
Response line: 1 to 10 nM

Prompt line: Same question, "COc1cc(OCC2CC2)c(-c2ncnc3c(C(=O)N[C@@H](C(=O)N4CCC(N5N=C(c6ccc(OC)c(OC)c6)[C@H]6CCCC[C@H]6C5=O)CC4)[C@H](C)c4ccccc4)c(C)[nH]c23)cc1F" this time
Response line: 1 to 10 nM

Prompt line: Try "COc1ccc(C2=NN(C3CCN(C(=O)C[C@@H](Cc4ccccc4)NC(=O)c4c[nH]c5c(-c6c(OCC7CC7)ccc7c6OCO7)ncnc45)CC3)C(=O)C(C)(C)C2)cc1OC" next.
Response line: 1 to 10 nM

Prompt line: // repeat for "COc1ccc(C2=NN(C3CCN(C(=O)[C@H](Cc4cccnc4)NC(=O)c4c[nH]c5c(-c6c(OCC7CC7)ccc7c6OCO7)ncnc45)CC3)C(=O)[C@@H]3CCCC[C@H]23)cc1OC" and report
Response line: < 1 nM

Prompt line: // query: "COc1ccc(C2=NN(C3CCN(C(=O)[C@@H](Cc4ccc(C#N)cc4)NC(=O)c4c[nH]c5c(-c6c(OCC7CC7)ccc7c6OCO7)ncnc45)CC3)C(=O)[C@@H]3CCCC[C@H]23)cc1OC"
Response line: 1 to 10 nM

Prompt line: What about "COc1ccc(C2=NN(C3CCN(C(=O)[C@@H](CCC(=O)N(C)C)NC(=O)c4c(C)[nH]c5c(-c6c(OCC7CC7)ccc7c6OCO7)ncnc45)CC3)C(=O)C(C)(C)C2)cc1OC" ?
Response line: 1 to 10 nM

Prompt line: Another compound to check: "COc1ccc(C2=NN(C3CCN(C(=O)[C@@H](CC(C)C)NC(=O)c4c[nH]c5c(-c6c(OCC7CC7)ccc7c6OCO7)ncnc45)CC3)C(=O)[C@@H]3CCCC[C@H]23)cc1OC"
Response line: < 1 nM

Prompt line: Now give it for "COc1ccc(C2=NN(C3CCN(C(=O)[C@@H](Cc4ccccc4)NC(=O)c4c[nH]c5c(-c6c(OCC7CC7)ccc7c6OCO7)ncnc45)CC3)C(=O)C(C)(C)C2)c2c1OC(C)(C)C2" too.
Response line: < 1 nM

Prompt line: Ok, now "COc1cc(OCC2CC2)c(-c2ncnc3c(C(=O)N[C@H](Cc4ccc(C(C)(C)C)cc4)C(=O)N4CCC(N5N=C(c6ccc(OC)c(OC)c6)[C@H]6CCCC[C@H]6C5=O)CC4)c(C)[nH]c23)cc1F"
Response line: 1 to 10 nM
